All figures here come from paper PMC9948168.

inhibition at 10 µM by entry:
# System: KM12
# Assay text: NCI-60 one-dose screening
# Format: cell-based
# Conditions: Homo sapiens, KM12, Colon Cancer, read-out: GI (%)

{"Molecule": "COc1ccc(COc2ccc(/C=C3/C(=O)Nc4ccc(Cl)cc43)cc2OC)cc1", "inhibition at 10 µM": "0.58%"}
{"Molecule": "COc1cc(C=C2C(=O)Nc3ccc(Cl)cc32)ccc1O (mixture of isomers)", "inhibition at 10 µM": "7.96%"}
{"Molecule": "COc1cc(C=C2C(=O)Nc3ccc(Cl)cc32)ccc1OCc1ccc(Cl)cc1 (mixture of isomers)", "inhibition at 10 µM": "3.49%"}
{"Molecule": "COc1cc(/C=C2/C(=O)Nc3ccccc32)ccc1OCc1ccc(F)cc1", "inhibition at 10 µM": "-0.58%"}
{"Molecule": "COc1cc(C=C2C(=O)Nc3ccccc32)ccc1OCc1ccccn1 (mixture of isomers)", "inhibition at 10 µM": "3.09%"}
{"Molecule": "COc1cc(/C=C2/C(=O)Nc3ccccc32)ccc1OCc1ccc(Cl)cc1", "inhibition at 10 µM": "0.38%"}
{"Molecule": "COc1cc(C=C2C(=O)Nc3ccccc32)ccc1O (mixture of isomers)", "inhibition at 10 µM": "9.4%"}
{"Molecule": "COc1cc(C=C2C(=O)Nc3ccc(Cl)cc32)ccc1OCc1ccc(F)cc1 (mixture of isomers)", "inhibition at 10 µM": "-0.4%"}
{"Molecule": "COc1cc(C=C2C(=O)Nc3cc(Cl)ccc32)ccc1OCc1ccc(Cl)cc1 (mixture of isomers)", "inhibition at 10 µM": "3.74%"}
{"Molecule": "COc1cc(C=C2C(=O)Nc3ccccc32)ccc1OCc1ccccc1 (mixture of isomers)", "inhibition at 10 µM": "-0.02%"}
{"Molecule": "COc1cc(/C=C2/C(=O)Nc3cc(Cl)ccc32)ccc1OCc1ccccn1", "inhibition at 10 µM": "2.85%"}
{"Molecule": "COc1cc(/C=C2/C(=O)Nc3cc(Cl)ccc32)ccc1OCc1ccc(F)cc1", "inhibition at 10 µM": "-2.27%"}
{"Molecule": "COc1cc(/C=C2/C(=O)Nc3cc(Cl)ccc32)ccc1OCc1ccccc1", "inhibition at 10 µM": "1.29%"}
{"Molecule": "COc1cc(/C=C2/C(=O)Nc3cc(Cl)ccc32)ccc1O", "inhibition at 10 µM": "6.51%"}
{"Molecule": "COc1ccc(COc2ccc(/C=C3/C(=O)Nc4ccccc43)cc2OC)cc1", "inhibition at 10 µM": "-3.98%"}
{"Molecule": "COc1cc(/C=C2/C(=O)Nc3ccc(Cl)cc32)ccc1OCc1ccccc1", "inhibition at 10 µM": "-0.66%"}
{"Molecule": "COc1cc(C=C2C(=O)Nc3ccc(Cl)cc32)ccc1OCc1ccccn1 (mixture of isomers)", "inhibition at 10 µM": "-0.52%"}
{"Molecule": "COc1ccc(COc2ccc(/C=C3/C(=O)Nc4cc(Cl)ccc43)cc2OC)cc1", "inhibition at 10 µM": "0.42%"}

* * *

# Assay text: iCELLigence real-time cell analysis
# Format: cell-based, human
# Conditions: human, MCF-12A cells; MCF-12A; 10 μM; 24 h; relative to control; read-out: cell viability (% ± SEM)
Observed property: viability at 24 h, 10 µM (%)

{"Molecule": "COc1cc(C=C2C(=O)Nc3ccc(Cl)cc32)ccc1OCc1ccccn1 (mixture of isomers)", "Observed property": "viability at 24 h, 10 µM", "Display unit": "%", "Reported value": 97.2}

* * *

# Test system: SNB-75
# Assay text: NCI-60 one-dose screening
# Assay type: cell-based
# Conditions: Homo sapiens, SNB-75, CNS Cancer, read-out: GI (%)

{"Compound": "COc1ccc(COc2ccc(/C=C3/C(=O)Nc4ccc(Cl)cc43)cc2OC)cc1 [6i]", "Display unit": "%", "inhibition at 10 µM": 11}
{"Compound": "COc1cc(/C=C2/C(=O)Nc3ccccc32)ccc1OCc1ccc(Cl)cc1 [6b]", "Display unit": "%", "inhibition at 10 µM": -3.58}
{"Compound": "COc1cc(C=C2C(=O)Nc3ccc(Cl)cc32)ccc1O (mixture of isomers) [5b]", "Display unit": "%", "inhibition at 10 µM": 50.1}
{"Compound": "COc1cc(/C=C2/C(=O)Nc3cc(Cl)ccc32)ccc1O [5c]", "Display unit": "%", "inhibition at 10 µM": 59.5}
{"Compound": "COc1cc(C=C2C(=O)Nc3ccccc32)ccc1O (mixture of isomers) [5a]", "Display unit": "%", "inhibition at 10 µM": 50.6}
{"Compound": "COc1cc(/C=C2/C(=O)Nc3ccc(Cl)cc32)ccc1OCc1ccccc1 [6f]", "Display unit": "%", "inhibition at 10 µM": 7.95}
{"Compound": "COc1cc(C=C2C(=O)Nc3cc(Cl)ccc32)ccc1OCc1ccc(Cl)cc1 (mixture of isomers) [6l]", "Display unit": "%", "inhibition at 10 µM": -3.14}
{"Compound": "COc1cc(/C=C2/C(=O)Nc3cc(Cl)ccc32)ccc1OCc1ccccc1 [6k]", "Display unit": "%", "inhibition at 10 µM": 3.2}
{"Compound": "COc1cc(/C=C2/C(=O)Nc3cc(Cl)ccc32)ccc1OCc1ccc(F)cc1 [6m]", "Display unit": "%", "inhibition at 10 µM": -4.47}

* * *

Reported inhibition at 10 µM is given for each of the following molecules.
# Tested on: MALME-3M
# Assay text: NCI-60 one-dose screening
# Type: cell-based
# Conditions: Homo sapiens, Melanoma, read-out: GI (%)

{"Molecule": "COc1cc(/C=C2/C(=O)Nc3ccccc32)ccc1OCc1ccc(Cl)cc1 [6b]", "inhibition at 10 µM, %": 4.51}
{"Molecule": "COc1cc(C=C2C(=O)Nc3ccccc32)ccc1OCc1ccccn1 (mixture of isomers) [6e]", "inhibition at 10 µM, %": 6.1}
{"Molecule": "COc1ccc(COc2ccc(/C=C3/C(=O)Nc4ccc(Cl)cc43)cc2OC)cc1 [6i]", "inhibition at 10 µM, %": 2.07}
{"Molecule": "COc1ccc(COc2ccc(/C=C3/C(=O)Nc4ccccc43)cc2OC)cc1 [6d]", "inhibition at 10 µM, %": 0.29}
{"Molecule": "COc1cc(/C=C2/C(=O)Nc3ccccc32)ccc1OCc1ccc(F)cc1 [6c]", "inhibition at 10 µM, %": 0.21}
{"Molecule": "COc1cc(/C=C2/C(=O)Nc3cc(Cl)ccc32)ccc1OCc1ccccn1 [6o]", "inhibition at 10 µM, %": 4.92}
{"Molecule": "COc1cc(/C=C2/C(=O)Nc3cc(Cl)ccc32)ccc1OCc1ccccc1 [6k]", "inhibition at 10 µM, %": 4.05}
{"Molecule": "COc1ccc(COc2ccc(/C=C3/C(=O)Nc4cc(Cl)ccc43)cc2OC)cc1 [6n]", "inhibition at 10 µM, %": 2.77}
{"Molecule": "COc1cc(C=C2C(=O)Nc3ccccc32)ccc1OCc1ccccc1 (mixture of isomers) [6a]", "inhibition at 10 µM, %": 8.77}
{"Molecule": "COc1cc(/C=C2/C(=O)Nc3ccc(Cl)cc32)ccc1OCc1ccccc1 [6f]", "inhibition at 10 µM, %": -1.28}
{"Molecule": "COc1cc(C=C2C(=O)Nc3ccc(Cl)cc32)ccc1OCc1ccc(Cl)cc1 (mixture of isomers) [6g]", "inhibition at 10 µM, %": 18.7}
{"Molecule": "COc1cc(C=C2C(=O)Nc3ccc(Cl)cc32)ccc1OCc1ccc(F)cc1 (mixture of isomers) [6h]", "inhibition at 10 µM, %": 17.7}
{"Molecule": "COc1cc(/C=C2/C(=O)Nc3cc(Cl)ccc32)ccc1OCc1ccc(F)cc1 [6m]", "inhibition at 10 µM, %": 7.28}
{"Molecule": "COc1cc(C=C2C(=O)Nc3cc(Cl)ccc32)ccc1OCc1ccc(Cl)cc1 (mixture of isomers) [6l]", "inhibition at 10 µM, %": 2.26}
{"Molecule": "COc1cc(C=C2C(=O)Nc3ccccc32)ccc1O (mixture of isomers) [5a]", "inhibition at 10 µM, %": 7.51}
{"Molecule": "COc1cc(/C=C2/C(=O)Nc3cc(Cl)ccc32)ccc1O [5c]", "inhibition at 10 µM, %": 8.69}
{"Molecule": "COc1cc(C=C2C(=O)Nc3ccc(Cl)cc32)ccc1OCc1ccccn1 (mixture of isomers) [6j]", "inhibition at 10 µM, %": 1.35}
{"Molecule": "COc1cc(C=C2C(=O)Nc3ccc(Cl)cc32)ccc1O (mixture of isomers) [5b]", "inhibition at 10 µM, %": 3.24}

* * *

# Test system: T-47D
# Assay text: NCI-60 one-dose screening
# Type: cell-based
# Conditions: Homo sapiens, T47D, Breast Cancer, read-out: GI (%)
Observed property: inhibition at 10 µM (%)

{"Compound": "COc1ccc(COc2ccc(/C=C3/C(=O)Nc4ccccc43)cc2OC)cc1", "Target or system": "T-47D", "Observed property": "inhibition at 10 µM", "Reported value": -12.8}
{"Compound": "COc1cc(/C=C2/C(=O)Nc3ccccc32)ccc1OCc1ccc(Cl)cc1", "Target or system": "T-47D", "Observed property": "inhibition at 10 µM", "Reported value": -6.94}
{"Compound": "COc1cc(C=C2C(=O)Nc3ccc(Cl)cc32)ccc1OCc1ccccn1 (mixture of isomers)", "Target or system": "T-47D", "Observed property": "inhibition at 10 µM", "Reported value": 9.54}
{"Compound": "COc1cc(/C=C2/C(=O)Nc3cc(Cl)ccc32)ccc1O", "Target or system": "T-47D", "Observed property": "inhibition at 10 µM", "Reported value": 49.2}
{"Compound": "COc1ccc(COc2ccc(/C=C3/C(=O)Nc4ccc(Cl)cc43)cc2OC)cc1", "Target or system": "T-47D", "Observed property": "inhibition at 10 µM", "Reported value": -5.11}
{"Compound": "COc1cc(/C=C2/C(=O)Nc3cc(Cl)ccc32)ccc1OCc1ccc(F)cc1", "Target or system": "T-47D", "Observed property": "inhibition at 10 µM", "Reported value": 5.94}
{"Compound": "COc1cc(/C=C2/C(=O)Nc3cc(Cl)ccc32)ccc1OCc1ccccn1", "Target or system": "T-47D", "Observed property": "inhibition at 10 µM", "Reported value": 0.18}
{"Compound": "COc1cc(C=C2C(=O)Nc3ccccc32)ccc1OCc1ccccn1 (mixture of isomers)", "Target or system": "T-47D", "Observed property": "inhibition at 10 µM", "Reported value": 15.8}
{"Compound": "COc1cc(C=C2C(=O)Nc3ccccc32)ccc1O (mixture of isomers)", "Target or system": "T-47D", "Observed property": "inhibition at 10 µM", "Reported value": 31.6}
